Examples of compounds with documented EC50 follow.
System: recombinant AMPK proteins (α1β1γ1, α2β1γ1, α1(1-335), α1(1-394) or α2(1-394))
Assay: Scintillation Proximity Assay (AMPK activation)
Type: biochemical, human
Details: effective concentration of activator for 50% of maximal enzyme activity; 2 hr at 30° C.; AMPK form not specified
Note: state the figure and append the unit.

Take a look at these entries with their results.
1. O=C1N(Cc2cccnc2)c2ccccc2[C@@]12C[C@@H]2c1ccc(Cl)cc1 (racemic) | 2600 nM
2. CS(=O)(=O)NC(=O)c1cccc(N2C(=O)[C@]3(C[C@@H]3c3ccc(Cl)cc3)c3ccccc32)c1 (racemic) | 1550 nM

# EC50 lookup, item N#Cc1ccc([C@H]2C[C@]23C(=O)N(Cc2cccc(C(=O)O)c2)c2ccccc23)cc1 (racemic)
5300 nM

###

Examples of molecules with documented pEC50 follow.
Test system: recombinant AMPK proteins (α1β1γ1, α2β1γ1, α1(1-335), α1(1-394) or α2(1-394))
Test: Scintillation Proximity Assay (AMPK activation)
Format: biochemical, human
Conditions: effective concentration of activator for 50% of maximal enzyme activity; 2 hr at 30° C.; AMPK form not specified
Expect pEC50 as a plain number equal to -log10 of the molar concentration.

1) CN(C)CCN1CCN(C(=O)c2cccc(CN3C(=O)[C@@]4(C[C@H]4c4ccc(Cl)cc4)c4ccccc43)c2)CC1 (racemic) | 5.74
2) COc1ccc([C@H]2C[C@]23C(=O)N(Cc2cccc(C(=O)O)c2)c2ccccc23)cc1 (racemic) | 5.69
3) O=C(O)Cn1cnc(N2C(=O)[C@]3(C[C@@H]3c3ccc(Cl)cc3)c3ccccc32)c1 (racemic) | 5.90
4) O=C1N(CCNCCN2CCOCC2)c2ccccc2[C@@]12C[C@@H]2c1ccc(Cl)cc1 (racemic) | 5.69

# pEC50 lookup, item O=C(O)c1cn(CCN2C(=O)[C@]3(C[C@@H]3c3ccc(Cl)cc3)c3ccccc32)cn1 (racemic)
5.65

###

Examples of compounds with documented EC50 follow.
Test system: recombinant AMPK proteins (α1β1γ1, α2β1γ1, α1(1-335), α1(1-394) or α2(1-394))
Test: Scintillation Proximity Assay (AMPK activation)
Format: biochemical, human
Details: effective concentration of activator for 50% of maximal enzyme activity; 2 hr at 30° C.; AMPK form not specified
The answer is to be given in µM; state only the numeric part.

Take a look at these entries with their results.
1) O=C1N(CCN2CCCCC2)c2ccccc2[C@@]12C[C@@H]2c1ccc(Cl)cc1 (racemic) [Example 125] | 1.75
2) CN1CCN(C(=O)c2cccc(N3C(=O)[C@]4(C[C@@H]4c4ccc(Cl)cc4)c4ccccc43)c2)CC1 (racemic) [Example 89] | 1.4
3) CS(=O)(=O)N1CCC(CN2C(=O)[C@]3(C[C@@H]3c3ccc(Cl)cc3)c3ccccc32)CC1 (racemic) [Example 73] | 1.65

# EC50 lookup, item O=C(Nc1cc(C2CC2)n[nH]1)c1cccc(CN2C(=O)[C@]3(C[C@@H]3c3ccc(Cl)cc3)c3ccccc32)c1 (racemic) [Example 116]
4.33

# EC50 lookup, item CS(=O)(=O)N1CCN(C(=O)c2cccc(N3C(=O)[C@]4(C[C@@H]4c4ccc(Cl)cc4)c4ccccc43)c2)CC1 (racemic) [Example 90]
1.47

# EC50 lookup, item CN1CCN(C(=O)c2cccc(N3C(=O)[C@]4(C[C@H]4c4ccc(Cl)cc4)c4ccccc43)c2)CC1 (racemic) [Example 86]
1.73

Data provenance is patent US8354443B2.
